Reference source for all entries: PubChem BioAssay (EPA / NIEHS)

# Read-out: E-selectin (Homo sapiens)
# assayText: BSK_LPS_Eselectin: BioMAP Diversity Plus: LPS Assay for Eselectin Biomarker Activity (AID 2283077)
# conditionSummary: primary human HUVEC with PBMC; actives raise or lower the signal
Calls of active or inactive are those of the source. The calls were made as follows: active = hit-call score of the fitted dose curve at least 0.9, where 1 is the maximum; inactive = score below 0.9.
Use one of these outcomes when replying: 1.0 for active, 0.0 for inactive

Recorded results for 5 molecules are shown here.
[in] Name the outcome recorded for BrC1CCC(Br)C(Br)CCC(Br)C(Br)CCC1Br (centres undefined) in the assay.
[out] 0.0

[in] Outcome logged for CCCCC(CC)COC(=O)/C=C\C(=O)OCC(CC)CCCC (centres undefined) in this assay:
[out] 0.0

[in] Hello, I am checking results. What call was entered for CC(C)(COC(=O)c1ccccc1)COC(=O)c1ccccc1 ?
[out] 0.0

[in] Hey, what did the test say about O=C(O)c1ccc([N+](=O)[O-])cc1 ?
[out] 0.0

[in] Given O=P(c1ccccc1)(c1ccccc1)c1ccccc1 , state the outcome it received in this test.
[out] 0.0

New cases:
[in] Please share the test call associated with Cc1ccc2n[nH]nc2c1 .
[out] 0.0

[in] Tell me the recorded outcome of this test for c1ccc2c(c1)c1cccc3ccc4cccc2c4c31 .
[out] 0.0

[in] # lookup: test call for CC(=O)[C@H]1CC[C@H]2[C@@H]3CC=C4C[C@@H](O)CC[C@]4(C)[C@H]3CC[C@]12C
[out] 0.0

[in] What was the test verdict on C=CCOC(=O)CCC1CCCCC1 ?
[out] 0.0

[in] // outcome(item) with item = COC(=O)c1ccc(C)cc1
[out] 0.0

[in] What call does the record list for CC(=O)/C=C/C1=C(C)CCCC1(C)C ?
[out] 0.0

[in] Which outcome did this test record for the molecule c1ccc2sc(SN(C3CCCCC3)C3CCCCC3)nc2c1 ?
[out] 0.0

[in] Any idea what this test logged for CC(=O)OCCC(C)CC(C)(C)C (centres undefined) ?
[out] 0.0

[in] Lab log entry: Cc1cc(C2(c3cc(C)c(O)cc3C)OS(=O)(=O)c3ccccc32)c(C)cc1O — outcome as called in the assay?
[out] 0.0
